Consider the following molecules and their measured normalized growth readings.
Assay: chemical genetic growth profiling, strain panel (AID 1159580);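 also: tested at 20 µM; growth read once vehicle control cultures reached saturation at 30 °C; 1 = growth at the plate median or of vehicle wells; lower values mean less growth of the strain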
Conditions: S. cerevisiae deletion strains, growth OD, locus YDR502C, strain sam2, stronger effect = lower value
Out of some 5,500 compounds screened, about 2,000 (36%) were called active. Not shown: some 18% with an inconclusive outcome. The list shows a part of the results.
# answer = number (no unit)

Take a look at these entries with their results.
COC(=O)CCC(C)[C@H]1CCC2C3C(C[C@H](O)[C@@]21C)[C@@]1(C)CC[C@@H](O)C[C@H]1C[C@H]3O (some centres not stated); 1.02
CC1(C)C(=O)C=C[C@@]2(C)C1CC(=O)[C@@]1(C)C3=CC(=O)O[C@@H](c4ccoc4)[C@]3(C)CCC12 (some centres not stated); 0.983

Kindly consider the entry below.
Need normalized growth, item COC(=O)CCC(C)C1CCC2C3CC[C@@H]4C[C@H](O)CC[C@]4(C)C3C[C@H](O)[C@]12C (some centres not stated)
1.02

* * *

Consider the following compounds and their measured normalized growth readings.
Test: chemical genetic growth profiling, strain panel (AID 1159580)
Settings: S. cerevisiae deletion strains, growth OD, locus YOR316C, strain cot1, stronger effect = lower value
The campaign covered roughly 5,500 compounds. About 2,000 (36%) were called active. Another 18% or so got no clear call; they are omitted. This is one part of the list.

CCCC(C(=O)OCCN(CC)CC)(c1ccccc1)c1ccccc1; 1 (inactive)
COC(=O)CCC(=O)O[C@H]1CCC2(C)C(CCC3C2C(=O)[C@@H](O)C2(C)C3CC3OC4(CCC(C)CO4)[C@@H](C)C32)C1 (stereo not given in full); 1 (inactive)
COc1c2ccccc2nc2occc12; 1.02 (inactive)
N[C@@H](Cc1cc(I)c(Oc2ccc(O)c(I)c2)c(I)c1)C(=O)O; 0.998 (inactive)
COc1c2ccoc2nc2c(OC)c(OCC(O)C(C)(C)O)ccc12 (stereo not given); 0.99 (inactive)
N[C@@H](Cc1cc(I)c(Oc2cc(I)c(O)c(I)c2)c(I)c1)C(=O)O; 1.22 [resistant] (active)

Need normalized growth, item NC(N)=NCCCC(NC(=O)C(N)Cc1ccc(O)cc1)C(=O)O (stereo not given)
0.979 (inactive)

Need normalized growth, item COc1cc(S(C)=O)ccc1-c1nc2ncccc2[nH]1 (stereo not given)
0.991 (inactive)

Need normalized growth, item "O=C(O)Cc1cc(I)c(Oc2cc(I)c(O)c(I)c2)c(I)c1"
0.941 (inactive)

Need normalized growth, item "NC(N)=NCCC[C@@H](NC(=O)[C@@H](N)Cc1ccc(O)cc1)C(=O)O"
1.01 (inactive)

* * *

Experiment: chemical genetic growth profiling, strain panel (AID 1159580)
Details: S. cerevisiae deletion strains, growth OD, locus YFR019W, strain FAB1
Screen size: about 5,500 compounds; about 2,000 (36%) were called active. About 18% were inconclusive and are not listed. Cut-off read from the data, not from the text of the source: active = normalized growth mostly below about 0.91 (no sharp cut-off); inconclusive = no clear call, values can overlap the other calls; inactive = mostly above about 0.92. The list shows a part of the results.
Field 'call' accepts yes (1) = active, no (0) = inactive

Hi, sorry to bother you, what did the test record for "O=C(NNc1ccc(Cl)cc1)c1ccc(F)cc1F" ?
yes (1)

* * *

Assay: chemical genetic growth profiling, strain panel (AID 1159580)
Conditions: S. cerevisiae deletion strains, growth OD, locus YHR030C, strain SLT2, stronger effect = lower value
The whole screen tested about 5,500 compounds, of which about 2,000 (36%) were called active. About 18% were inconclusive and are not listed. The list shows a part of the results.
RESULT_TYPE: normalized growth
# answer = number (no unit)

Take a look at these entries with their results.
O=C(CCn1c(=O)oc2ccccc21)Sc1ccc(Cl)cc1Cl; 0.149
COc1ccc(OC)c(-c2ccn[nH]2)c1OCc1ccccc1; 0.986

Need normalized growth, item "COc1ccc(-n2c(-c3ccc(C)cc3)csc2=N)cc1"
1.05

Need normalized growth, item "CC1=C2[C@H]3OC(=O)[C@@H](C)[C@@H]3CC[C@@]2(C)C=CC1=O"
0.981

Need normalized growth, item "COc1cc2c(cc1/C=C/C(=O)c1cc(OC)c(OC)cc1OC)OCO2"
1.02

Need normalized growth, item "CSC(=NC(=O)c1c(Cl)cccc1Cl)SC"
0.194

Need normalized growth, item C[C@@H]1CC2C3CCC4=CC(=O)C=C[C@]4(C)[C@@]3(F)[C@@H](O)C[C@]2(C)[C@H]1C(=O)CO (some centres not stated)
1.06

* * *

Consider the following molecules and their measured normalized growth readings.
Assay: chemical genetic growth profiling, strain panel (AID 1159580)
Settings: S. cerevisiae deletion strains, growth OD, locus YML094W, strain GIM5, stronger effect = lower value
Hit rate of the full screen: of about 5,500 compounds, about 2,000 (36%) were called active. About 18% were inconclusive and are not listed. The list shows a part of the results.
# answer = number (no unit)

Need normalized growth, item "O=C1/C(=C/c2ccc(Cl)cc2)COc2ccc(F)cc21"
0.941

Need normalized growth, item "COc1ccc(C(=O)C2CCNCC2)cc1"
0.969

Need normalized growth, item "CC(=O)Nc1ccc(S(=O)(=O)NC2Cc3ccccc3C2)cc1"
1.02

Need normalized growth, item "CC(=O)Nc1ccc(C(F)(F)F)cc1Br"
0.996

Need normalized growth, item "Cc1ccc2cc(NC(=O)c3ccco3)ccc2n1"
0.96

Need normalized growth, item "COc1ccc2c(c1)CCCN2C(=O)NC(=O)c1c(F)cccc1Cl"
0.973

* * *

Consider the following compounds and their measured normalized growth readings.
Assay: chemical genetic growth profiling, strain panel (AID 1159580)
Settings: S. cerevisiae deletion strains, growth OD, locus YPL256C, strain CLN2, stronger effect = lower value
About 2,000 (36%) of roughly 5,500 compounds were called active. Inconclusive results (about 18%) are left out. The list shows a part of the results.
# answer = number (no unit)

Take a look at these entries with their results.
C[C@@H]1CC2C3C[C@H](F)C4=CC(=O)C=C[C@]4(C)[C@@]3(F)[C@@H](O)C[C@]2(C)[C@@]1(O)C(=O)COC(=O)C(C)(C)C (some centres undefined); 0.992
N[C@@H]1[C@@H](O)[C@H](O)[C@@H](CO)O[C@H]1O; 0.985
CC(=O)OCC(=O)[C@@]1(O)[C@H](OC(C)=O)CC2C3CCC4=CC(=O)C=C[C@]4(C)[C@@]3(F)[C@@H](O)C[C@@]21C (some centres undefined); 0.969

Need normalized growth, item "Cc1c(S(=O)(=O)c2ccc(Cl)cc2)csc1C(=O)NNc1cccc(Cl)c1"
0.733

* * *

Assay: chemical genetic growth profiling, strain panel (AID 1159580);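 also: tested at 20 µM; growth read once vehicle control cultures reached saturation at 30 °C; 1 = growth at the plate median or of vehicle wells; lower values mean less growth of the strain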
Details: S. cerevisiae deletion strains, growth OD, locus YBL105C, strain PKC1, stronger effect = lower value
About 2,000 (36%) of roughly 5,500 compounds were called active. About 18% were inconclusive and are not listed. The list shows a part of the results.
Consider the following molecules and their measured normalized growth readings.
# answer = number (no unit)

Take a look at these entries with their results.
O=[N+]([O-])c1ccc(-c2csc(Nc3ccncc3)n2)cc1; 0.978
COc1ccc(C(=O)NCc2csc3ccc(Cl)cc23)cc1OC; 0.97

Need normalized growth, item "Cc1onc(-c2ccccc2)c1C(=O)Sc1ccc(C(F)(F)F)cn1"
0.961

Need normalized growth, item "COc1cc(CC/C(C)=N/O)ccc1OCc1ccc(Cl)cc1Cl"
0.972

* * *

Test: chemical genetic growth profiling, strain panel (AID 1159580);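 also: tested at 20 µM; growth read once vehicle control cultures reached saturation at 30 °C; 1 = growth at the plate median or of vehicle wells; lower values mean less growth of the strain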
Settings: S. cerevisiae deletion strains, growth OD, locus YGR078C, strain PAC10, stronger effect = lower value
Hit rate of the full screen: of about 5,500 compounds, about 2,000 (36%) were called active. Not shown: some 18% with an inconclusive outcome. The list shows a part of the results.
RESULT_TYPE: normalized growth
# answer = number (no unit)

FC(F)(F)c1cc(-n2c(CCc3nc(-c4ccc(Cl)cc4)no3)n[nH]c2=S)cc(C(F)(F)F)c1; 0.963
O=C1NC(c2cccc([N+](=O)[O-])c2)=CCN1c1ccccc1O; 1.02
COc1ccc(N=Cc2ccccc2O)cc1; 0.995
COc1ccc(C=Nc2ccc(O)cc2)cc1; 0.996
Clc1ccc2c(c1)C(N1CCNCC1)=Nc1ccccc1O2; 1
CCCCCC1C(=O)CCC1CC(=O)OC (stereo not drawn); 1.04
Cc1cc(O)c(C)c2c1C(=O)Oc1c(C)c(O)c(C(=O)O)c(C)c1O2; 1.01

Kindly consider the entry below.
Need normalized growth, item "O=C(NCc1nc(-c2ccc(C(F)(F)F)cc2)no1)Nc1ccc(F)cc1F"
0.996

* * *

Assay: chemical genetic growth profiling, strain panel (AID 1159580);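 also: tested at 20 µM; growth read once vehicle control cultures reached saturation at 30 °C; 1 = growth at the plate median or of vehicle wells; lower values mean less growth of the strain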
Conditions: S. cerevisiae deletion strains, growth OD, locus YDR150W, strain NUM1, stronger effect = lower value
Hit rate of the full screen: of about 5,500 compounds, about 2,000 (36%) were called active. Not shown: some 18% with an inconclusive outcome. The list shows a part of the results.
Assign labels as follows, please: satisfied for normalized growth below 1; not satisfied for normalized growth equal to or exceeding 1.

# count of solved cases: 5
COc1ccc(C(=O)C2CCNCC2)cc1; not satisfied
N[C@H](Cc1cc(I)c(Oc2ccc(O)c(I)c2)c(I)c1)C(=O)O; not satisfied
O=S(=O)(Nc1ccc(Oc2ccc(Cl)cc2)cc1)c1ccccc1; satisfied
COc1ccc2c(c1)CCCN2C(=O)NC(=O)c1c(F)cccc1Cl; not satisfied
O=[N+]([O-])c1cccc2c(Br)[nH]nc12; satisfied

Please let me know if "N[C@@H](Cc1cc(I)c(Oc2cc(I)c(O)c(I)c2)c(I)c1)C(=O)O" shows normalized growth below 1.
not satisfied

Please let me know if "COc1ccc(OCC(N)=O)cc1" shows normalized growth below 1.
satisfied

Please let me know if "O=c1c2cc(NS(=O)(=O)c3ccc(Cl)cc3)ccc2oc2ncccc12" shows normalized growth below 1.
satisfied

Please let me know if "Cc1ccc(S(=O)(=O)Nc2ccc(C)c([N+](=O)[O-])c2)cc1" shows normalized growth below 1.
satisfied

Please let me know if "N[C@@H](Cc1c[nH]c2ccc(O)cc12)C(=O)O" shows normalized growth below 1.
not satisfied
